The values you see were collected from ChEMBL document CHEMBL1158577.

- TARGET_OR_TEST_SYSTEM: Histamine H2 receptor (Homo sapiens, UniProt P25021)
- Sequence (P25021 whole entry): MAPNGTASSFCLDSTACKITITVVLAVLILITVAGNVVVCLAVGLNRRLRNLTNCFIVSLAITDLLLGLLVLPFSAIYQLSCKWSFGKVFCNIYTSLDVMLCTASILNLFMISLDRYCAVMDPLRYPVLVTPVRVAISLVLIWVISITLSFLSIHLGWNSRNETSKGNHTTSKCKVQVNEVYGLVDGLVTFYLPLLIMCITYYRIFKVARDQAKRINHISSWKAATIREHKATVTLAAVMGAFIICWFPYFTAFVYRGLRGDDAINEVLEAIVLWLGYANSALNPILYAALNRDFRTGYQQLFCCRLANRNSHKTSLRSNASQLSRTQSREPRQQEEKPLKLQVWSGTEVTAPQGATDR
QUANTITY_MEASURED: Ki

# return recorded Ki for entry `CC(C)(C)c1ccc(SCCc2c[nH]cn2)cc1`
> 1000 nM

====

- TARGET_OR_TEST_SYSTEM: 5-hydroxytryptamine receptor 2A (Homo sapiens)
- Sequence (P28223 whole entry): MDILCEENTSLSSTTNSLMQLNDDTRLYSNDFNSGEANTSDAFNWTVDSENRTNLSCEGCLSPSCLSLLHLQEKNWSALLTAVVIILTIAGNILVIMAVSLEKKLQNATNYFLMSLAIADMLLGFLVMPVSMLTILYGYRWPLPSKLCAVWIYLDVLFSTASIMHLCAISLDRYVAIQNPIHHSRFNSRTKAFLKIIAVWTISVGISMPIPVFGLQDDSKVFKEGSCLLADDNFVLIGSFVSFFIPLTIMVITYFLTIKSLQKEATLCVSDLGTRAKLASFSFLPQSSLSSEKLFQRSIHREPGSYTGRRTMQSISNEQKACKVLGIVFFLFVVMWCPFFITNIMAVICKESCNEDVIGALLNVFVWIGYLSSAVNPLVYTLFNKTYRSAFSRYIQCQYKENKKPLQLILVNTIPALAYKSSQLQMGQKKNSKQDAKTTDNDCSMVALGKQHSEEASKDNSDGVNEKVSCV
- EXPERIMENTAL_DETAILS: Inhibition of 5HT2A receptor
QUANTITY_MEASURED: Ki

# return recorded Ki for entry `CC(C)(C)c1ccc(SCCc2c[nH]cn2)cc1`
> 1000 nM

====

Some compounds, each annotated with its measured pKi.
- TARGET_OR_TEST_SYSTEM: UniProtKB Q9Y5N1
- EXPERIMENTAL_DETAILS: Displacement of [3H[N-alpha-methylhistamine form human recombinant histamine H3 receptor expressed in CHO cells after 1 hr by liquid scintillation counting
Would you please state pKi, meaning minus log10 of the concentration in mol/L, as a bare number?

Solved entries:
c1nc(CCNC2CCCCC2)c[nH]1 5.80
Cc1ccc(NCCc2cnc[nH]2)cc1 7.85

// next entry
# return recorded pKi for entry `COc1ccc(NCCc2c[nH]cn2)cc1`
7.62

====

- TARGET_OR_TEST_SYSTEM: Cytochrome P450 3A4 (Homo sapiens)
- Sequence (P08684 whole entry): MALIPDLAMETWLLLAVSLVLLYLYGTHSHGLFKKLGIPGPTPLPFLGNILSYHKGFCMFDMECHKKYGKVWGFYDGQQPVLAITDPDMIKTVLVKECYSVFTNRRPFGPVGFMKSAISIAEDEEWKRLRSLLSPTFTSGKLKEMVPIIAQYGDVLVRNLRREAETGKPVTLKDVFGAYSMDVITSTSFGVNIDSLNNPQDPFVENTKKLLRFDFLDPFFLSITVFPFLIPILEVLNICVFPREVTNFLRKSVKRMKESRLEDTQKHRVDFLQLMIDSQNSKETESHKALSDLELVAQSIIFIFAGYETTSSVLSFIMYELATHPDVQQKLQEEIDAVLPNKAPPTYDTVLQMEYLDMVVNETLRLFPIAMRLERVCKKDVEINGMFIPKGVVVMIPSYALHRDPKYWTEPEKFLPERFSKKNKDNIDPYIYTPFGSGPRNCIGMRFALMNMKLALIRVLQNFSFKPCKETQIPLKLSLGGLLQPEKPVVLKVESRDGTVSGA
QUANTITY_MEASURED: IC50 (nM)
Report the figure in nM without appending any unit label.

# return recorded IC50 for entry `CC(C)(C)c1ccc(SCCc2c[nH]cn2)cc1`
470

====

- EXPERIMENTAL_DETAILS: Volume of distribution at steady state in Wistar rat at 2 mg/kg, iv after 6 hrs by LC-MS/MS analysis
- Type: ADME, organism-based
- Set-up: dose 2 mg/kg, route intravenous
- COND: in vivo, read-out: Vdss
QUANTITY_MEASURED: Vd

# return recorded Vd for entry `CC(C)(C)c1ccc(SCCc2c[nH]cn2)cc1`
3.4 L/kg

====

- TARGET_OR_TEST_SYSTEM: Beta-1 adrenergic receptor (Homo sapiens)
- Sequence (P08588 whole entry): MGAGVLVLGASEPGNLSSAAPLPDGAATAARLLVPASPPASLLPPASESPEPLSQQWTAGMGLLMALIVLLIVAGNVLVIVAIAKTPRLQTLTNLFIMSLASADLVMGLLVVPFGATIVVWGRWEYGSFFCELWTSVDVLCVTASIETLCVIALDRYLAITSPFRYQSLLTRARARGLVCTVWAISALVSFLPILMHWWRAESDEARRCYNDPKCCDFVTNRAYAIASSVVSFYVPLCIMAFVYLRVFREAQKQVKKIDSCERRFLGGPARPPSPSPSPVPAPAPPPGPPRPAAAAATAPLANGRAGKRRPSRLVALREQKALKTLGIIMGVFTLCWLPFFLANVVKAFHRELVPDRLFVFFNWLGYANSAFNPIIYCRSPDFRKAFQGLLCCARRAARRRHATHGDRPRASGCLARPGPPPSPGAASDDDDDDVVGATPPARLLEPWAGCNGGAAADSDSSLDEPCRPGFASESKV
QUANTITY_MEASURED: Ki

Please look at `CC(C)(C)c1ccc(SCCc2c[nH]cn2)cc1` and tell me its recorded Ki on Beta-1 adrenergic receptor (Homo sapiens).
> 1 µM

====

- TARGET_OR_TEST_SYSTEM: Muscarinic acetylcholine receptor M1 (Homo sapiens)
- Sequence (P11229 whole entry): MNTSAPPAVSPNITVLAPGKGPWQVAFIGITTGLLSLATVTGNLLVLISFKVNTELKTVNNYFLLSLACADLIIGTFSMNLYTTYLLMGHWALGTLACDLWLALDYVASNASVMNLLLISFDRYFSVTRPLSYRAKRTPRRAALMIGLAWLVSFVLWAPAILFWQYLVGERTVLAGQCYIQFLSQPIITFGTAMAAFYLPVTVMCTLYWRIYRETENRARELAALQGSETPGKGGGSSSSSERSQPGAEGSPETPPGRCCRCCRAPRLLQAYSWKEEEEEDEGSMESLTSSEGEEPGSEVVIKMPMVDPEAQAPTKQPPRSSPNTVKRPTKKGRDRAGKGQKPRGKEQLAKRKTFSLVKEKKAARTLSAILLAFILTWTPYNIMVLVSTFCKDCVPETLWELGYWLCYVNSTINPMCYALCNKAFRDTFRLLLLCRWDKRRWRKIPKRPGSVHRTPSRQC
QUANTITY_MEASURED: Ki

Please look at `CC(C)(C)c1ccc(SCCc2c[nH]cn2)cc1` and tell me its recorded Ki on Muscarinic acetylcholine receptor M1 (Homo sapiens).
> 1000 nM

====

- EXPERIMENTAL_DETAILS: Total clearance in Wistar rat at 2 mg/kg, iv after 6 hrs by LC-MS/MS analysis
- Type: ADME, organism-based
- Set-up: dose 2 mg/kg, route intravenous
- COND: in vivo
QUANTITY_MEASURED: clearance (mL/min/kg)
Report the figure in mL/min/kg without appending any unit label.

# return recorded clearance for entry `CC(C)(C)c1ccc(SCCc2c[nH]cn2)cc1`
46.7

====

- TARGET_OR_TEST_SYSTEM: Cytochrome P450 2C19 (Homo sapiens, UniProt P33261)
- Sequence (P33261 whole entry): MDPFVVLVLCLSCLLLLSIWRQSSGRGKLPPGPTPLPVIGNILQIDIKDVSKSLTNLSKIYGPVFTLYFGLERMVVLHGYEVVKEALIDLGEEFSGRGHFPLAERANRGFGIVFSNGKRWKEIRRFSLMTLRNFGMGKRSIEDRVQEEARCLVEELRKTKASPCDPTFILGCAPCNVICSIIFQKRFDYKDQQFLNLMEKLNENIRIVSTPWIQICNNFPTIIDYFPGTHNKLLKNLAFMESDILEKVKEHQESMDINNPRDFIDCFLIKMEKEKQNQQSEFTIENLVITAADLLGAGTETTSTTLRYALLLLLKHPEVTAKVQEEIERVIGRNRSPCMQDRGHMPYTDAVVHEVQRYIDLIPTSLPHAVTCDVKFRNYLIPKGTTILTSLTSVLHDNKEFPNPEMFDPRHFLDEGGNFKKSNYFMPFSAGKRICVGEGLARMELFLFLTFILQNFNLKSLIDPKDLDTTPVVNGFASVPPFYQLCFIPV
QUANTITY_MEASURED: IC50 (nM)
Report the figure in nM without appending any unit label.

# return recorded IC50 for entry `CC(C)(C)c1ccc(SCCc2c[nH]cn2)cc1`
8.5

====

- TARGET_OR_TEST_SYSTEM: Histamine H4 receptor (Homo sapiens, UniProt Q9H3N8)
- Sequence (Q9H3N8 whole entry): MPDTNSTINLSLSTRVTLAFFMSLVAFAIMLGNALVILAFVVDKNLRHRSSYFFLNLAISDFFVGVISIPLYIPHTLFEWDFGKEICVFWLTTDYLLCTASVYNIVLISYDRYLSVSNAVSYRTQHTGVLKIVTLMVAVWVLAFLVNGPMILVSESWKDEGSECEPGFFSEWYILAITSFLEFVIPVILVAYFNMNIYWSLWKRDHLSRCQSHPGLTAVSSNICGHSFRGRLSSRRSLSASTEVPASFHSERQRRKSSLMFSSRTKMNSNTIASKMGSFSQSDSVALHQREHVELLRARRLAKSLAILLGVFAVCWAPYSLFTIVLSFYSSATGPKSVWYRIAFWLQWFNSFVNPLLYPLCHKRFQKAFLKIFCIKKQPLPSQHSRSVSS
- EXPERIMENTAL_DETAILS: Inhibition of human recombinant histamine H4 receptor expressed in CHO cells
QUANTITY_MEASURED: pKi
Would you please state pKi, meaning minus log10 of the concentration in mol/L, as a bare number?

# return recorded pKi for entry `CC(C)(C)c1ccc(SCCc2c[nH]cn2)cc1`
8.96

====

- TARGET_OR_TEST_SYSTEM: Histamine H3 receptor (Homo sapiens, UniProt Q9Y5N1)
- Sequence (Q9Y5N1 whole entry): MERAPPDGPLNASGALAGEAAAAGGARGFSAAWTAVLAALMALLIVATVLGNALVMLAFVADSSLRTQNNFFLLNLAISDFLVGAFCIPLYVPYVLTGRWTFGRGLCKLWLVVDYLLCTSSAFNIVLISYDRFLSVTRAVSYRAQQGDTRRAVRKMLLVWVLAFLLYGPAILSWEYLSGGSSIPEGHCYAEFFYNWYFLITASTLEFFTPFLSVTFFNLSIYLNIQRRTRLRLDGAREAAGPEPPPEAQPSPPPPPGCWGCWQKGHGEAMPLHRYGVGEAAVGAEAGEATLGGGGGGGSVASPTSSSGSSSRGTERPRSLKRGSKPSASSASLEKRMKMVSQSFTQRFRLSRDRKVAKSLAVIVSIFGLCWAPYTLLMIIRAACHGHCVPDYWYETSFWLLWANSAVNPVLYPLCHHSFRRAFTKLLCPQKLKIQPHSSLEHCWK
- EXPERIMENTAL_DETAILS: Displacement of [3H[N-alpha-methylhistamine form human recombinant histamine H3 receptor expressed in CHO cells after 1 hr by liquid scintillation counting
- Format: cell-based
Some compounds, each annotated with its measured pKi.
Would you please state pKi, meaning minus log10 of the concentration in mol/L, as a bare number?

Solved entries:
COMPOUND	TARGET_OR_TEST_SYSTEM	pKi
Cc1ccc(NCCc2cnc[nH]2)cc1C	Histamine H3 receptor (Homo sapiens, UniProt Q9Y5N1)	8.00
FC(F)(F)c1ccc(NCCc2c[nH]cn2)cc1	Histamine H3 receptor (Homo sapiens, UniProt Q9Y5N1)	8.96
N=C(N)SCCc1cnc[nH]1 [IMETIT]	Histamine H3 receptor (Homo sapiens, UniProt Q9Y5N1)	9.24
CC(C)(C)c1cccc(NCCc2c[nH]cn2)c1	Histamine H3 receptor (Homo sapiens, UniProt Q9Y5N1)	8.66
c1ncc(CCNc2ccc(C3CCCCC3)cc2)[nH]1	Histamine H3 receptor (Homo sapiens, UniProt Q9Y5N1)	8.39

# return recorded pKi for entry `CC(C)(C)c1ccc(NCCc2cnc[nH]2)cc1`
9.05

# return recorded pKi for entry `CC(C)(C)c1ccc(SCCc2c[nH]cn2)cc1`
9.77
